Origin of measurements: the nanobody polyreactivity screen of Harvey et al. (2022)

assay: yeast display, Sf9 membrane polyspecificity reagent, FACS + sequencing; frameworks hold sequencing errors
Reported Property: polyreactivity (PSR sort gate)

1) QVQLVESGGGLVQAGGSLRLTCASSGRILVSYAIGWYRQAPGKERELVAAISRSGGSTYYADSVKGRFTISRDIAKNTVYLQMNSLKTEDTAVYYCNVYRFSRYDYWGQGTKVTVSS; high polyreactivity
2) QFQLVESGGGLVQAGGSLRLSCAASGSTFRRNTMGWYRQAPGKEREFVAAISRRGGSTYYADSVKGRFTISRDNAKNTVYLQMNRLKPEDTAVYYCAAPGLSRLYNVYYWPYDYWGQGTQVTVSS; high polyreactivity
3) QVQLVESGGGLVQAGGSLRLSCAASGRTFGYNAMGWYRQAPGKERELVAAISSSGGSTYYADSVKGRFTISRDNAKNTVYLQMNSLKPEDTAVYYCATQGYSWAHGSDYWGQGTQVTVSS; low polyreactivity
4) QVQLVESGGGLVQAGCSLRLSCAASGIIYINYAMGWYRQAPGKERELVAVITRGGSTYYADSVKGRFTISRDNAKNTVYLLMNSLKPEDTAVYYCNARYLSWWTGRFNYWGQGTQVTVSS; high polyreactivity

We next turn to a different sequence, shown below.
Query string: Which polyreactivity (PSR sort gate) is reported for this sequence? QVQLVDSGGGLVQAGGSLRLSCAASGTTFYSYAMGWYRQAPGKERELVAAISSSGDSTYYADSVKGRFTISRDNAKNTVYLQMNSLKPEDTAVYYCAARKGELWFPQGGYNYWGQGTQVTVLS
Result string: low polyreactivity

* * *

test: yeast display, Sf9 membrane polyspecificity reagent, FACS + sequencing; frameworks hold sequencing errors
Reported Property: polyreactivity (PSR sort gate)

Study these solved cases before continuing.
1) QVQLVESGGGLVQAGGSLRLSCAAYGLTFDSYAMGWYRQAPGKERELVAAISYGGGSTNFADSVKGRFTISRDNAKNTVYLQLNSLKPVDTAVYYCGAEPGYYDEYGYWGQGTQVTVSS; low polyreactivity
2) QVQLVESGGGLVQAGGSLRLSCAASGSTFVYYAMGWYRQAPGKERELVAVISDDGGTYYADSVKGRFSISRDNAKNTVYLQMNSLKPEDTAVYYCAKDYYGGAYYWYNDRSGDYWGQGTQVTVSS; low polyreactivity
3) QVQLVESGGGLVQAGGILRLSCAASGNIFAFYAMGWYRQAPVKERELVAAITDGTTTNYADSVKGRFTISRDNAKNTVYLQMNSLIPEDTAVYYSAADTGWWPWLERFRHYYYWGQGTQVTVSS; low polyreactivity
4) QFQIVESGGGLVQAGGSLRLSCASSGLIFYKYAMGWYRQAPGKERELVARISYTGGITSYADSVKGRFTISRDNAKNTVYLQMNSLKPEDTAVYYCAARYTRPFGPFDYWGQGTQVTVSS; low polyreactivity
5) QVQLVESGGGLVQAGGSLRLSCAASGSIFTFYAMRWYRQAPGKERELVATINRIGGNRYYADSVKGRFTISRDNAKNTVYLQMNSLKPEDTAGYYCAAKPTYRGYGYGSWGQGTQVNVSS; low polyreactivity
6) QVQLVESGGGLVQAGGSLRLSCAASGFTFAVYVMGWYRQAPGKERELVATISFSVGSTYYADSVKGRFTISRDNAKNTVYLQMNSLKPEDTAVYYCNADPPPEYYPDKDNYWGQGTQVTVSS; low polyreactivity
7) QVQLVESGGGLVQAGGSLRLSCAASGGIIQNYVMGWYRQAPGKEREFVATISQRGGITYYADSVKGRFTISRDNAKNTVYLQMNSLKPEDTAVYYCAARSYYAVYYWGQGTQVTVSS; high polyreactivity
8) QVQLVESGGGLVQAGGSLRLSCAASGIIFRYNAMGWYRQAPGKERELVAAISRSSGSTYYADSVKGRFTISRDNAKNTVYLQMNSLKPEDTAVYYCAAYPRYRVEYWGQGTQVTVSS; high polyreactivity

Query string: Which value of polyreactivity (PSR sort gate) has been reported for QVQLVESGGGLVQAGGSLRLSCAASGRTFAINARGWYRQAPGKERELVAAITTSGGGTYYADSVKGRFTISRDNAKNTVYLQMNSLKPEDTAVYYCAAGTSYYTYRFYAWDYDYWGQGTQVTVSS in the records?
Result string: low polyreactivity

Query string: Data request, read-out polyreactivity (PSR sort gate), for QVQLVESGGGLVQAGGSLRLSCAASGSNFYPYTMGWYRQAPGKERELVAAISGGGRTYYADSVKGRFTISRDNAKNTVFLQMNSLNPEDTAVYYCAARYVYRWLVGKYEYWGQGTQVTLSS
Result string: high polyreactivity

Query string: Bench note: what polyreactivity (PSR sort gate) did QVQLVESGGGLVQAGGRLRLSCAASGITFRWYAMGWYRQAPGKERELVAAITTSGDSTYYADSVKGRFTISRDNAKNTVYLQMNSLKPEDTAVNYCAAKYQSLRTYGYGFDYWGQGTQVTVSS show?
Result string: high polyreactivity

* * *

experiment: yeast display, Sf9 membrane polyspecificity reagent, FACS + sequencing; frameworks hold sequencing errors
Reported Property: polyreactivity (PSR sort gate)

Worked examples follow.
1) QVQLVESGGGLVQAGGSLRLSCAASRSIFYINAMGWYRQEPGKEMELVAAITSDGSTYYADSVKGRFTISRDNAKNTVYLQMNSLKPEDTAVYYCAADLTSDQYLYYWYWFYSWGQGTQVTVSS; low polyreactivity
2) QVQLVESGGGLVQAGGSLRLSCAASGRISQIYAMGWYRQAPGKERELVARITSTDSTYYADSVKGRFTISRDNAKNTVYLQMNSLKPEDTAVYYCAASWWSPYDYWGQGTQVTVSS; low polyreactivity
3) QVQHVESGGGLVQAGGSLRLSCAASGSTFSYYAMGWSRQAPGKERELVAAISGSGASTYYADSVKGRFTISRDNAKNTVYLQMNSLKPEDTAVYYCAKYYVREHYDYWGQGTQVTVSS; low polyreactivity
4) QVQLVDSGGGLGQAGGSLRLSCAASGSIFTTNAMGCYRHAPGKERELVAASSSRGGSTYYADSVKGRFTISRDNAKNTVYLQMNSLKPEDTAVYYCAARYRWPIPGTNYEYWGQGTQVTVSS; low polyreactivity
5) QVQLVESGGGLVQAGGSLRLSCAASGSTFGSYAMGWYRQAPGKERELVAAISRSGTSTYYADSVKGRFTISRDNAKNTVYLQMNSLKPEETAVYYCAAKFVTSGGLEGYWGQGTQVTVSS; high polyreactivity

Query string: Can you share its polyreactivity (PSR sort gate)? I mean this sequence: QVQLVESGGGLVQAGGSLRLSCAASGRIFGGYAMGWYRQAPGKERELVAAISSSGGRTYYADSVKGRFTISRDNAKNTVYLQMKSLKPEDTAVYYCNAGAGQRVSGHSFEYWGQGTQVTVSS
Result string: high polyreactivity

Query string: Any idea what polyreactivity (PSR sort gate) was measured for QVQLVESGGGLVKAGGSLRLSCAASGFIFKRNVMGWYRQAPGKETELVARISSRGGSTYYADSVKGRFTISRDNAKNTVYLQMNSLKPEDTEVYYCAADFGTIRVYSGDYWGQGTQVTVSS ?
Result string: high polyreactivity

Query string: Which polyreactivity (PSR sort gate) reading was recorded for the sequence QVQLVESGGGLVQAGGSLRLSCAASGSIFKQNTMGWYRQAPGKETELVAAISSGGSTYYADSVKGRFTISRDNAKNTVYLQMNSLKPEDTAVYYCAKYYDWDYYLPLEGDYWGQGTQVTVSS ?
Result string: low polyreactivity

Query string: Fill blank: measured polyreactivity (PSR sort gate) of the sequence QVQLVESGGGLVQAGGSLRLSCAASGFILVGYAMGWYRQARGKERELVAAITSGGTTSYADAVKGSFIISRDNAKNTVYLQMISLKPEESAVYYCAAVQWDSSSKYYYWGQGTQVTVSS is ____.
Result string: low polyreactivity

Query string: Need polyreactivity (PSR sort gate), item QVQLVESGGGLVQAGGSLRLSCAASGRTFNYYAMGWYRPAPGKERELVAAISGSGGRTYYADSVKGRFTISRDNAKNNVYLQMNSLKPVDTAVYYCNADVGKYPYAHTYWARRYYYWGQGTQVTVSS
Result string: high polyreactivity

Query string: Param item = QVQLVESGGGLVQAGGSLRLSCAASGFTRIYAMGWYRQAPGKERELVAAISQRGGRTYYADSVKGRFTISRDNAKNTVYLQMNSLKPEDTAVYYCNADRRSYNYPEYEYDYWGQGTQVTVSS ; retrieve measured polyreactivity (PSR sort gate).
Result string: high polyreactivity

* * *

experiment: yeast display, Sf9 membrane polyspecificity reagent, FACS + sequencing; frameworks hold sequencing errors
Reported Property: polyreactivity (PSR sort gate)

1. QVQLVESGGGLVQAGGSLRLSCAASGFTFIPNAMGWYRQAPGKERELVAAISTGGSTYYADSVKGRFTISRDNAKNTVYLQMNSLKPEDTAVYYCAAGILVLKLYFSSYDYWGQGTEVTVSS; low polyreactivity
2. QVQLVESGGGLVQAGGSLRLSCAASGLTFSKNVMGWYRQAPGKERELVAAISGITSSTYYADSVKGRFTISRDNAKNTVYLQMNSLKPEDTAVYYCAADLSFSRPGRFGYWGQGTQVTVSS; high polyreactivity
3. QVQLVEAGGGLVQSGGSLRLSCAASGSIFNIYAMGWSRQAAGKDRELVAVISSRGGRSYYADSVKGRFTISRDNAKNTVYLQMTSLKPEDTAVYYCAAGYLRQGYRGYDYWGQGTQVTVSS; high polyreactivity
4. QVQLVESGGGLVQAGGSLRLSCAASGSTFRIYTMGWYRQAPGKERELVAGISSSGNTNYADSVKGRFTISRDNAKNTVYLQMNSLKPEDTAVYYCNAASLKFTSPVRFGYWGQGTQVTVSS; high polyreactivity
5. QVQLVESGGGLVQAGGSLRLSCAASGSIFYLYTMGWYRQAPGKERELVAAITSGGSTNYADSVKGRFTISRDNAKNTVYLQMNSLKPEDTAVYYCAAEYFDWWVTYDYWGQGTQVTVSS; high polyreactivity

Query string: For the sequence QVQLVESGGGLVQAGGSLRLSCAASGSIFSFYMGWYRQAPGKERELVAAISSRGGSTYYADSVKGRFTISRDNAKNTVYLQMISLKPEDTAVYYCAAAGGGKVSYRDYDYWGQGTQVTVSS , what polyreactivity (PSR sort gate) is on record?
Result string: high polyreactivity

Query string: Sample QVQLVESGGGLVQAGGSLRLSCAASGSIFDWYAMGWYRKAPGTERELVAAINEGGGSTYYADSVKGRFTISRDNAKNTVYLQMNSLKPEDTAVYYCAAGDYYLQDNYWGQGTQVTVSS — what was its polyreactivity (PSR sort gate)?
Result string: low polyreactivity

Query string: Returns the measured polyreactivity (PSR sort gate) for the input sequence. Input: QVQLVESGGGLVQAGGSLRLSCAASGSTLSDNAMGWYRQAPGKERELVARISGDGSTNYADSVKGRFTISRDNAKNTVYLQMNSLKPEDTAVYYCNAGTAGIYYYGKSDYWGQGTQVTVSS
Result string: low polyreactivity

Query string: Please report the recorded polyreactivity (PSR sort gate) for QVQLVESGGGLVQAGGSLRLSCAASGFTFWRYAMGWYRQAPGKERELVAVITRRGGSTYYADSVKGRFTISRDNAKNTVYLQMNSLKPEDTAVYYCAAGPVSQQHSPGPHDYWGQGTQVTVSS .
Result string: high polyreactivity

Query string: Endpoint output: polyreactivity (PSR sort gate) of QVQLVESGGGLVQAGGSLRLSCAASGFIFDYYAMGWYRQAPGKERELVAAITSRGGSTYYADSVKGRFTISRDNAKNTVYLQMNSLKQEDTAVYYCAARRRSAEYNYWGHGTQVTVSS . Value?
Result string: high polyreactivity

Query string: Would you mind telling me what polyreactivity (PSR sort gate) value was observed for QVQLVESGGGLVQAGGSLRLSCAASGSTFLDNAMGWYRQAPGKETELVAAITQSGSSTYYADSVKGRFTISRDNAKNTVYLQMNSLKPEDTAVYYCAADVPNISFDYWGQGTQVTVSS ?
Result string: low polyreactivity
